target: PDE4; test: PDE4 inhibition; conditions: purified PDE4
pKi: −log10 of the molar value.
MEASUREMENT TYPE: pKi

Task: Form field: reported pKi of `COc1ccc(C(=O)Nc2c(Cl)cncc2Cl)cc1OC1CCCC1`
Output: ~9.52
